Recorded values, source paper PMC11602973.

- measurement.target: T1, AtGRP2-CSD1-90 R49A (Arabidopsis thaliana, UniProt Q41188 1-90, R49A)
- T1 sequence: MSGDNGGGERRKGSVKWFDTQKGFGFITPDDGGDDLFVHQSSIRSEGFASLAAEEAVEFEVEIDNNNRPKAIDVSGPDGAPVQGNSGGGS
- assay.protocol: fluorescence anisotropy; 20 mM sodium phosphate pH 6.5, 50 mM NaCl, 25 C (fluorescence); NMR titrations in the same buffer plus 250 uM PMSF, 3 mM NaN3, 5% D2O, 298 K
- assay.context: protein: recombinant; tags: N-terminal Trx(6 aa)-His6-TEV tag, cleaved; label: 5'-rhodamine
pKd: −log10 of the molar value.
measurement.type: pKd

> print(dat)
                     binder  endpoint.value
1  TTTTTTT (ssDNA) [Rho-T7]            4.34
